Record set of AC50 for target or system Histamine H2 receptor (Homo sapiens, UniProt P25021). Also: assay procedure not described here.

MOLECULE	TARGET_OR_TEST_SYSTEM	AC50
C[C@H]1O[C@H](O[C@H]2[C@H](O)[C@@H](O)[C@@H](O[C@H]3[C@H](O)[C@@H](O)C(O)O[C@@H]3CO)O[C@@H]2CO)[C@H](O)[C@@H](O)[C@@H]1N[C@H]1C=C(CO)[C@@H](O)[C@H](O)[C@H]1O (stereo partly drawn)	Histamine H2 receptor (Homo sapiens, UniProt P25021)	> 10 µM
COc1cc2c(cc1OC)C(=O)C(CC1CCN(Cc3ccccc3)CC1)C2 (stereo not drawn)	Histamine H2 receptor (Homo sapiens, UniProt P25021)	> 10 µM
CN1CCN(C(=O)OC2c3nccnc3C(=O)N2c2ccc(Cl)cn2)CC1 (stereo not drawn)	Histamine H2 receptor (Homo sapiens, UniProt P25021)	> 10 µM
